Test: Drug level in human CWR22R cells xenografted mouse plasma at 10 mg/kg, po after 24 hrs on day 60
Format: ADME, organism-based
Design: dose 10 mg/kg, route oral
Conditions: read-out: Drug uptake
READOUT: concentration at 24 h (µM)
One number for each entry, in µM.

Query: concentration at 24 h; subject: CC12C[C@H](O)C(C)(O1)[C@@H]1C(=O)N(c3ccc(C#N)c(I)c3)C(=O)[C@@H]12 (stereo partly specified)
8

* * *

Target: UniProtKB P10275
Assay: Displacement of [3H]DHT from human androgen receptor in MDA453 cells
pKi: −log10 of the molar value.
If the reported pKi equals or exceeds 6, assign Condition met. If not, assign Condition not met.

[[record]]
molecule_smiles = "CC12CCC(C)(O1)[C@H]1C(=O)N(c3cnc(C#N)c(Cl)c3)C(=O)[C@H]12"
label_class = "Condition met"

[[record]]
molecule_smiles = "O=C1[C@@H]2C3CCC(O3)[C@@H]2C(=O)N1c1ccc(Br)c2ccccc12"
label_class = "Condition met"


Is the recorded value of pKi equal to or greater than 6 for this compound? O=C1[C@@H]2C3CCC(C3)[C@@H]2C(=O)N1c1cccc(C(F)(F)F)c1
Condition met

Is the recorded value of pKi equal to or greater than 6 for this compound? O=C1[C@@H]2C3CCC(O3)[C@@H]2C(=O)N1c1cccc(C(F)(F)F)c1
Condition not met

* * *

What Ki was measured for each of the following?
Target: Androgen receptor (Homo sapiens)
Sequence (P10275 whole entry): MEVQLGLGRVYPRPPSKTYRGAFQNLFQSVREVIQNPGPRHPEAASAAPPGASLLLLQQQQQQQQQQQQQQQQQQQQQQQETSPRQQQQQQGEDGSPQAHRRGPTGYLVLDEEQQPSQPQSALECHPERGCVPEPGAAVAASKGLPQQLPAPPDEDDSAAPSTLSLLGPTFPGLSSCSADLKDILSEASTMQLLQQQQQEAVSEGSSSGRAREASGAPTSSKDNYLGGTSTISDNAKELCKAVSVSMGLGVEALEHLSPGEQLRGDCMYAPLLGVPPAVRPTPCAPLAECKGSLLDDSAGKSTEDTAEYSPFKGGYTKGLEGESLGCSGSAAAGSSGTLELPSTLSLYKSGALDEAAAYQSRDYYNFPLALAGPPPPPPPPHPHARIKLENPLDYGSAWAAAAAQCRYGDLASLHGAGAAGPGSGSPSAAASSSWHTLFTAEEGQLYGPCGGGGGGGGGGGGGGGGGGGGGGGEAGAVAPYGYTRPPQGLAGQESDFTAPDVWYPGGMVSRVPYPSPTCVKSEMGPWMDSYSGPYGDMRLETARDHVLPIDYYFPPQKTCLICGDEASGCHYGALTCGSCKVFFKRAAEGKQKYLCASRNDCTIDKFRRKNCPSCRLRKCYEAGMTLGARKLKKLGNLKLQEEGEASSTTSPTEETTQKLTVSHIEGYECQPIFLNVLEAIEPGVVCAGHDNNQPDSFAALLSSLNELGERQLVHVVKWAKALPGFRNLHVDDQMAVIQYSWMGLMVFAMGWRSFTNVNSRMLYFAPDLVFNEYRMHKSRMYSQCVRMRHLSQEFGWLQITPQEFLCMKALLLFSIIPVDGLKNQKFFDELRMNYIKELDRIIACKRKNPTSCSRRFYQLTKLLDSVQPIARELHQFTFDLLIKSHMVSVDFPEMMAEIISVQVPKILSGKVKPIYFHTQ
Assay: Displacement of [3H]DHT from human androgen receptor in MDA453 cells

[[record]]
molecule_smiles = "CC12CCC(C)(O1)[C@H]1C(=O)N(c3cccc(C(F)(F)F)c3)C(=O)[C@H]12"
assay_target = "Androgen receptor (Homo sapiens)"
result = "0.041 µM"

[[record]]
molecule_smiles = "O=C1[C@@H]2C3CCC(O3)[C@@H]2C(=O)N1c1ccc(Cl)c(Cl)c1"
assay_target = "Androgen receptor (Homo sapiens)"
result = "0.377 µM"

[[record]]
molecule_smiles = "Cc1cc(N2C(=O)[C@@H]3C4CCC(O4)[C@@H]3C2=O)ccc1Cl"
assay_target = "Androgen receptor (Homo sapiens)"
result = "0.077 µM"


Please look at the items below and tell me Ki for each one, in order.
1. O=C1[C@@H]2C3CCC(O3)[C@@H]2C(=O)N1c1ccc(I)c(Cl)c1
2. CC12CCC(C)(O1)[C@H]1C(=O)N(c3c(N)ccc4ncsc34)C(=O)[C@H]12
3. CC12CCC(C)(O1)[C@H]1C(=O)N(c3ccc(C#N)c(C(F)(F)F)c3)C(=O)[C@H]12

1. 0.221 µM
2. 0.017 µM
3. 0.017 µM

Please look at the items below and tell me Ki for each one, in order.
1. CC12CCC(C)(O1)[C@H]1C(=O)N(c3ccc([N+](=O)[O-])c(C(F)(F)F)c3)C(=O)[C@H]12
2. N#Cc1ccc(N2C(=O)[C@@H]3C4CCC(O4)[C@@H]3C2=O)cc1C(F)(F)F

["0.017 µM", "1.17 µM"]

* * *

Assay: Drug level in human CWR22R cells xenografted mouse plasma at 90 mg/kg, po after 1 hr on day 60
Type: ADME, organism-based
Parameters: dose 90 mg/kg, route oral
Details: read-out: Drug uptake
READOUT: concentration at 1 h (µM)
Give bare numbers, in µM.

Query: concentration at 1 h; subject: CC12C[C@H](O)C(C)(O1)[C@@H]1C(=O)N(c3ccc(C#N)c(I)c3)C(=O)[C@@H]12 (stereo partly specified)
55.5

* * *

Assay: Cmax in BALB/c mouse at 1.0 mmol/kg, po
Format: ADME, organism-based
Parameters: dose 1 mmol/kg, route oral
Details: in vivo
What Cmax was measured for each of the following?
Numbers only, in µM.

Study these solved cases before continuing.
[[record]]
compound = "O=C1[C@@H]2C3CCC(O3)[C@@H]2C(=O)N1c1ccc([N+](=O)[O-])c2ccccc12"
readout = "Cmax"
numeric_readout = 100

[[record]]
compound = "O=C1[C@H]2C3CCC(C3)N2C(=O)N1c1cccc(C(F)(F)F)c1 (some centres undefined)"
readout = "Cmax"
numeric_readout = 1.74

[[record]]
compound = "O=C1[C@@H]2C3CCC(C3)[C@@H]2C(=O)N1c1cccc(C(F)(F)F)c1"
readout = "Cmax"
numeric_readout = 0.023


Consider now this further compound.
Query: Cmax; subject: CC(O)(CS(=O)(=O)c1ccc(F)cc1)C(=O)Nc1ccc(C#N)c(C(F)(F)F)c1 (centres undefined) [BICALUTAMIDE]
110

* * *

Biological target: Androgen receptor (Homo sapiens, UniProt P10275)
Experiment: Displacement of [3H]DHT from human androgen receptor in MDA453 cells
READOUT: log10 Ki (log10 of the value in nM)
// units: nM (pre-log); metric: Ki; scale: log10

Study these solved cases before continuing.
[[record]]
compound = "CSc1cc(N2C(=O)[C@@H]3[C@H](C2=O)C2(C)CCC3(C)O2)ccc1C#N"
readout = "log10 Ki"
numeric_readout = 0.48

[[record]]
compound = "CC12CCC(C)(O1)[C@H]1C(=O)N(c3ccc(C#N)c4nsnc34)C(=O)[C@H]12"
readout = "log10 Ki"
numeric_readout = 0.48

[[record]]
compound = "CC12CCC(C)(O1)[C@H]1C(=O)N(c3cc(Cl)cc(Cl)c3)C(=O)[C@H]12"
readout = "log10 Ki"
numeric_readout = 0.48

[[record]]
compound = "COc1cc(N2C(=O)[C@@H]3[C@H](C2=O)C2(C)CCC3(C)O2)ccc1-c1cnco1"
readout = "log10 Ki"
numeric_readout = 1.08


Please look at the items below and tell me log10 Ki for each one, in order.
1. CC12CCC(O1)[C@H]1C(=O)N(c3cccc(C(F)(F)F)c3)C(=O)[C@H]12 (stereo partly specified)
2. CC(C)(C)OC(=O)N1CC2CC1[C@@H]1C(=O)N(c3ccc(C#N)c(C(F)(F)F)c3)C(=O)N21 (stereo partly specified)
3. CC12C[C@@H](O)C(C)(O1)[C@H]1C(=O)N(c3ccc(C#N)c(I)c3)C(=O)[C@H]12 (stereo partly specified)
4. CC12C[C@H](O)C(C)(O1)[C@@H]1C(=O)N(c3ccc(C#N)c(I)c3)C(=O)[C@@H]12 (stereo partly specified)
5. CC12CCC(C)(O1)[C@H]1C(=O)N(c3c(N)ccc4nccn34)C(=O)[C@H]12

[2.61, 1.60, 0.38, 0.86, 1.43]

Please look at the items below and tell me log10 Ki for each one, in order.
1. CC12CCC(C)(O1)[C@H]1C(=O)N(c3ccc([N+](=O)[O-])c4c(Br)cccc34)C(=O)[C@H]12
2. O=C1[C@@H]2C3CCC(O3)[C@@H]2C(=O)N1c1ccc([N+](=O)[O-])c2ccccc12
3. Cc1ccc(N2C(=O)[C@@H]3C4CCC(O4)[C@@H]3C2=O)cc1Cl
4. O=C1[C@H]2C3CCC(C3)N2C(=O)N1c1cccc(C(F)(F)F)c1 (stereo partly specified)
5. CC12CCC(C)(O1)[C@H]1C(=O)N(c3ccc(C#N)n4nccc34)C(=O)[C@H]12
6. O=C1[C@@H]2C3CCC(O3)[C@@H]2C(=O)N1c1ccc(Cl)c([N+](=O)[O-])c1
7. CC12CCC(C)(O1)[C@H]1C(=O)N(c3ccc(C#N)c(I)c3)C(=O)[C@H]12

1. 1.23
2. 0.48
3. 2.69
4. 1.32
5. 1.26
6. 2.84
7. 0.00
